Recorded measurements of Percent Effect, one per entry
Tested on: Wolbachia pipientis
Measurement Protocol: Anti-Wolbachia Cell-Based Screen
Format: functional
Design: scale not given: in the data most compounds retested in dose-response had high values
Run Parameters: 5 µM
The whole screen tested about 48,000 compounds, of which about 13,000 (27%) showed an effect of 50% or more. The list shows a part of the results.
Give the number; % is assumed, so skip it.

{"Molecule": "COc1ccc(O[C@H]2COCCN(C(=O)c3ccno3)C2)cc1", "Experimental Target": "Wolbachia pipientis", "Unit Of Measurement": "%", "Percent Effect": -10.22}

Can you share its Percent Effect? I mean this molecule: Cc1cc(C)n(CC2CCCN2C(=O)CCCNc2ncccn2)n1 (stereo unspecified)
-5.56

Can you share its Percent Effect? I mean this molecule: CN(Cc1cncnc1)[C@@H]1CN(C(=O)C2CC2)[C@@H]2CCCO[C@H]12.O=C(O)C(F)(F)F
103.9
